# Test system: HepG2
# Test summary: GSK_TCMDC: Percent inhibition of human HepG2 cell line. Test compounds present at 10uM.
# Assay type: functional
Reported metric: Inhibition (%)
Numeric answer only, unit % assumed.

Inhibition on HepG2 for CC(C)N(Cc1cnc2nc(N)nc(N)c2n1)c1ccc(Cl)c(Cl)c1 is 63

Test item CC(=NNC(=N)N)C(=O)Nc1ccc(Cl)c(Cl)c1.O=S(=O)(O)O ; HepG2; reported Inhibition was 0

The observed Inhibition for O=C(NCc1ccc2c(c1)OCO2)c1nn(CCN2CCC(N3CCCC3)CC2)cc1-c1ccc(Cl)c(Cl)c1 when tested with HepG2 stands at 21

Record for CO/C(=C\C=C\c1cc2cc(Cl)c(Cl)cc2[nH]1)C(=O)NCCCN1CCC(c2ccccc2)CC1 under target or system HepG2: Inhibition reported as 33

Per the reported HepG2 data, Cc1ccc(CN2CCCN(Cc3ccc(C(=O)Nc4ccc(Cl)cc4)cc3)CC2)s1.O=C(O)C(F)(F)F has Inhibition of 53

Field Inhibition (HepG2), entry CC1(C)N=C(N)N=C(N)N1c1cccc(I)c1.Cl : 68

The value of Inhibition recorded for CN(C)CCCNCc1ccc(-c2ccc(F)c(Cl)c2)o1.Cl when tested on HepG2 reads 29

Bench note, HepG2: entry COc1ccc(-c2cnc3ccc(NCc4ccc(S(N)(=O)=O)cc4)nn23)cc1 , its Inhibition = 19

Short answer on HepG2 for O=C(O)C(F)(F)F.O=c1cc(N2CCNCC2)c(Cl)nn1Cc1ccc(NS(=O)(=O)c2ccc(Oc3ccccc3)cc2)cc1 , Inhibition: 3

---

# Test system: Plasmodium falciparum
# Test summary: GSK_TCMDC: Inhibition of Plasmodium falciparum 3D7 in whole red blood cells, using parasite LDH activity as an index of growth. Test compounds present at 2uM
# Format: functional
Reported metric: Inhibition (%)
Just the number in %, nothing appended.

Given item Cc1cc(-c2nc3ccc(CN4CCN(C)CC4)cc3[nH]2)nn1Cc1cc(Cl)ccc1OCc1ccccc1.Cl , the value recorded as its Inhibition is 100

Lookup result for Cc1nc(C)c(-c2ccc(S(=O)(=O)c3ccc(Cl)cc3)cc2)c(O)c1Br ; measured Inhibition: 97

For reference, reported Inhibition for O=C(Nc1ccccc1)Nc1cccc(-c2nn3c(OCC4CCCCN4)cccc3c2-c2ccncc2)c1 (centres undefined) stands at 97

Inhibition reading for CN1CCN(c2cc(-c3cccnc3)nc(-c3ccncc3)n2)CC1 : 100

Short answer for COc1ccc(CC(=O)NC(CCN2CCC3(CCc4ccccc43)CC2)c2ccc(Cl)c(Cl)c2)cc1 (centres undefined) : Inhibition was 90

The compound COc1cc(Cc2cnc(N)nc2N)cc(OCCCCC2NC(=O)NC2=O)c1OC (centres undefined) showed Inhibition equal to 94

Quick note, Inhibition for O=C(Nc1ccc(Cl)cc1)Nc1cccc(-c2cccc(-c3nc4ccccc4[nH]3)c2)c1 landed at 100

The recorded Inhibition for entry NCc1ccc(CNCc2ccc(-c3ccc(-c4nc5cc(F)ccc5[nH]4)cc3)cc2)cc1.O=C(O)C(F)(F)F equals 100

// Inhibition value for CC1(C)N=C(N)N=C(N)N1CCc1ccccc1.Cl : 93

---

# Test system: Plasmodium falciparum
# Test summary: GSK_TCMDC: Inhibition of Plasmodium falciparum Dd2 in whole red blood cells, using parasite LDH activity as an index of growth. Test compounds present at 2uM
# Type: functional
Give Inhibition for every item shown.
Quick reminder: number only, in %, skip the unit.

Documented Inhibition of N#Cc1ccc(N(CCOc2ccc(Cl)c(F)c2)Cc2ccccc2C(F)(F)F)cc1C(F)(F)F : 43

// COc1cccc(C(=O)C2CC2CN(C)CC(O)c2cc(C)c(OC)cc2C)c1.O=C(O)C(F)(F)F (configuration not stated) : Inhibition value = 73

Record Cc1cc(N[C@@H](Cc2ccccc2)C(=O)NCc2cccc(F)c2)nc(NCCc2cccnc2)n1.O=C(O)C(F)(F)F , field Inhibition: 40

Memo: CC(C)(C)c1ccc(CN2CCC(NC(=O)c3ccc(-c4cccc(Cl)c4)s3)CC2)cc1.O=C(O)C(F)(F)F , reported Inhibition: 47

Recorded Inhibition (compound Cc1nnc2c(NC(=O)NC3CCCC3)cc3cc(-c4ccc(CN(C)C)cc4)ccc3n12 ): 37

Quick note, Inhibition for COc1ccc(Nc2ncc3c(-c4cccc(NC(=O)c5ccc(N)cc5)c4)c[nH]c3n2)cc1OC landed at 31

The compound identified as CCN(CC)CCNc1cc(C)nc(NC(=N)Nc2ccc(Cl)cc2)n1.Cl registered its Inhibition at 0

// Inhibition lookup, compound = O=C(c1cc2ccccc2o1)N1CCc2cc3nccc(N4CCN5CCC[C@H]5C4)c3cc21 , result: 100

// recorded Inhibition for Nc1nc(N)c2c(ccc3c2ccn3Cc2cc3c(cc2Cl)OCO3)n1 : 94

Consider Nc1nc(N)c(-c2ccccc2)c(=O)[nH]1 . Its measured Inhibition is 0

For record C=CC[C@@H](C(=O)OCC)[C@@H]1[C@@H](N(CC=C)C(=O)OC(C)(C)C)CCN1C(=O)OCc1ccccc1 the listed Inhibition is 68

Value of Inhibition reported for the compound O=C(COc1ccccc1)N(Cc1ccc(-c2ccc(CNC3Cc4ccccc4C3)cc2)cc1)C1CCNCC1.O=C(O)C(F)(F)F is 8

The measured Inhibition associated with CC(C)Cn1c2ccccc2c2nc3nc(N)nc(N)c3nc21 reads 0

Note to self: Inhibition recorded for O=C(Cc1ccccc1)NC(c1ccc(Cl)cc1)c1ccc2cccnc2c1O (configuration not stated) was 64

So, CCOc1ccc(C2CCN(CCCCNC(=O)c3ccc(NC(=O)c4ccc(Cl)cc4)cc3)CC2)c(OCC)c1.Cl ? Its Inhibition was 95

// sample CCCCCn1c(Sc2ccc(C#N)c([N+](=O)[O-])c2)nnc1-c1cccc(Cl)c1 , its Inhibition was 75

The measured Inhibition associated with C[C@@H](N/C(=N\c1ccc(-c2ccccc2)cc1)Nc1ccc(C#N)cc1O)c1ccc(Br)cc1 reads 95

For reference, reported Inhibition for CC(=O)c1ccc2c(c1)C(NC(=O)c1cccc(Cl)c1Cl)C(CO)C(C)(C)O2 (configuration not stated) stands at 44

Briefly, Inhibition measured for CNC(=O)C1Cc2c([nH]c3ccc(Cl)cc23)C2(CCN(CCc3ccccc3)CC2)N1 (configuration not stated) : 16

For reference, reported Inhibition for CC(C)CCn1c(Sc2ccc(C#N)c([N+](=O)[O-])c2)nnc1-c1ccccc1Cl stands at 38

Measured Inhibition, CC1CCCN(S(=O)(=O)c2ccc(NC(=O)c3cc(-c4ccccc4O)n[nH]3)cc2)C1 (configuration not stated) : 49

Measured Inhibition, CCN(CCNS(C)(=O)=O)c1ccc(N)c(C)c1.O.O=S(=O)(O)O : 11

Quick note, Inhibition for N#Cc1ccc(-c2ccc(C(=O)NCCCCN3CCC(n4cnc5ccccc54)CC3)cc2)cc1 landed at 2

Looking up CCOC(=O)c1ccc(NC(=O)c2ccccc2C(=O)O)cc1 , I found its Inhibition recorded as 0

Looking up CN(C)CCc1coc2ccc(C(=O)Nc3ccc(-c4ccc(O)cc4)cc3)cc12 , I found its Inhibition recorded as 40

Value of measured Inhibition for the entry Br.Oc1cccc2c1CC(NCc1ccccc1)CC2 (configuration not stated) : 24

In plain terms, Cl.Cn1c(=N)n(CC(=O)N2CCc3ccc(Cl)cc3C2Cc2ccc(Cl)c(Cl)c2)c2ccccc21 (configuration not stated) has a documented Inhibition of 52

So, COc1ccc(NC(=O)N2CCc3ccc(OCCN(C(C)C)C(C)C)cc32)cc1C(F)(F)F.O=C(O)C(F)(F)F ? Its Inhibition was 6

// CC(=O)c1sc(NC(=O)Nc2ccc(C)cc2C)nc1C : Inhibition value = 68

Lab book: Inhibition of CN1CCN(c2cccc(Nc3nccc(NCC(O)c4ccccc4)n3)c2)CC1 (configuration not stated) noted as 4

Inhibition recorded for this compound, Cc1cccc2nc(-c3cccc(-c4cccc(NC(=O)c5ccncc5)c4)c3)[nH]c12 , is 78

# Inhibition of Cl.O=C(Nc1cccc(Cl)c1Cl)N1CCc2cc3nccc(N4CCN5CCC[C@H]5C4)c3cc21 = 100

// sample CC(C)N1CCC(N(Cc2ccc(-c3ccc(C(F)(F)F)cc3)cc2)C(=O)Cn2c(CCc3cccc(F)c3F)cc(=O)c3c2CCC3)CC1.O=C(O)C(O)C(O)C(=O)O , its Inhibition was 62

# Inhibition of COc1cc(OC)cc(-c2nn(-c3ccc([N+](=O)[O-])cc3Cl)c(=S)n2Cc2ccco2)c1 = 100

Inhibition measured on O=C(NCCCCN1CC=C(c2ccc3c(c2OCc2ccccc2)CCCC3)CC1)c1ccc(-c2ccc(C(F)(F)F)cc2)cc1 = 82

# compound Cn1nccc1C(=O)NCCNCc1cccc(-c2csc(-c3nc4ccccc4[nH]3)c2)c1.O=C(O)C(F)(F)F ; its Inhibition = 2

Lab note: CCCc1c(C(=O)OCC)c2cc(O)ccc2n1-c1ccc(OC)cc1 gave Inhibition of 99
